Test: Human liver microsomal stability of compound in microsomal protein, PBS buffer pH 7.4, NADPH, glucose-6-phosphate and glucose-6-phosphate dehydrogenase media. Aliquotes were taken at 5 time points and after stopping the reaction, supernatants were analyzed using HPLC coupled with a tandem mass spectrometer. The elimination constant, half-life, and intrinsic clearance are determined as results using linear regression analysis. The assay has been performed by Enamine biological services, Bienta Ltd.The protocol is publicly available: dx.doi.org/10.17504/protocols.io.5qpvokdb9l4o/v1; also: time not given here
Format: ADME, microsomes, Microsome
Settings: microsomes
Listing of recorded Remaining (without cofactor) by entry.
Enter your answer as a number in %; do not include the unit.

// known answers, use as guide
compound_structure_string=CC(C)[C@H](Nc1ncnc2[nH]c(-c3cnn(C)c3C#N)cc12)c1ccc2c(n1)OCCO2 recorded_value=116
compound_structure_string=CC(C)[C@H](CO)Nc1ncnc2[nH]ccc12 recorded_value=99
compound_structure_string=CC(C)[C@@H](Nc1ncnc2[nH]c(-c3cnn(CCC(N)=O)c3)cc12)c1ccc2c(c1)OCCO2 recorded_value=108
compound_structure_string=CCNC(=O)c1cc2c(N[C@@H](c3ccc4c(c3)S(=O)(=O)NCC4)C(C)C)ncnc2[nH]1 recorded_value=107

Proceed to the following item.
Req: Please give the measured Remaining (without cofactor) for this molecule: COCCNC(=O)c1c[nH]c2ncnc(N[C@@H](c3ccc4c(c3)S(=O)(=O)CCC4)C(C)C)c12
Resp: 106
